System name: WNK4 (Homo sapiens, UniProt Q96J92)
Assay text: biochemical
Design: species or system HEK293/K-562/placenta mixed human extract; Kinobeads chemoproteomic competition binding, quantified by TMT LC-MS/MS, dose response up to 20 uM
Property name: IC50

Inquiry: Param item = COc1nc(N[C@H]2CC[C@H](NS(=O)(=O)CC(C)C)CC2)nc2[nH]nc(N3CCOC[C@H]3C)c12 ; retrieve measured IC50.
Reply text: ≥ 20 µM

###

System name: IRAK3 (Homo sapiens)
Assay text: biochemical
Set-up: species or system HEK293/K-562/placenta mixed human extract; Kinobeads chemoproteomic competition binding, quantified by TMT LC-MS/MS, dose response up to 20 uM
Property name: IC50

Inquiry: What does the data say about its IC50? Entry: COc1ccccc1-c1n[nH]c2nc(N[C@H]3CC[C@H](NS(=O)(=O)CCC(F)(F)F)CC3)nc(OC)c12
Reply text: ≥ 20 µM

###

System name: BUB1 (Homo sapiens, UniProt O43683)
Assay text: biochemical
Parameters: species or system HEK293/K-562/placenta mixed human extract; Kinobeads chemoproteomic competition binding, quantified by TMT LC-MS/MS, dose response up to 20 uM
Property name: IC50

Inquiry: Endpoint output: IC50 of COc1ccccc1-c1n[nH]c2nc(N[C@H]3CC[C@H](NS(=O)(=O)CCC(F)(F)F)CC3)nc(OC)c12 . Value?
Reply text: ≥ 20 µM

###

System name: UniProtKB P52564
Assay text: biochemical
Parameters: species or system HEK293/K-562/placenta mixed human extract; Kinobeads chemoproteomic competition binding, quantified by TMT LC-MS/MS, dose response up to 20 uM
Property name: IC50

Inquiry: What IC50 appears in the records for this compound with UniProtKB P52564? COc1nc(N[C@H]2CC[C@H](NS(=O)(=O)CC(C)C)CC2)nc2[nH]nc(N3CCOC[C@H]3C)c12
Reply text: ≥ 20 µM

###

System name: NUAK1 (Homo sapiens, UniProt O60285)
Sequence (O60285 whole entry): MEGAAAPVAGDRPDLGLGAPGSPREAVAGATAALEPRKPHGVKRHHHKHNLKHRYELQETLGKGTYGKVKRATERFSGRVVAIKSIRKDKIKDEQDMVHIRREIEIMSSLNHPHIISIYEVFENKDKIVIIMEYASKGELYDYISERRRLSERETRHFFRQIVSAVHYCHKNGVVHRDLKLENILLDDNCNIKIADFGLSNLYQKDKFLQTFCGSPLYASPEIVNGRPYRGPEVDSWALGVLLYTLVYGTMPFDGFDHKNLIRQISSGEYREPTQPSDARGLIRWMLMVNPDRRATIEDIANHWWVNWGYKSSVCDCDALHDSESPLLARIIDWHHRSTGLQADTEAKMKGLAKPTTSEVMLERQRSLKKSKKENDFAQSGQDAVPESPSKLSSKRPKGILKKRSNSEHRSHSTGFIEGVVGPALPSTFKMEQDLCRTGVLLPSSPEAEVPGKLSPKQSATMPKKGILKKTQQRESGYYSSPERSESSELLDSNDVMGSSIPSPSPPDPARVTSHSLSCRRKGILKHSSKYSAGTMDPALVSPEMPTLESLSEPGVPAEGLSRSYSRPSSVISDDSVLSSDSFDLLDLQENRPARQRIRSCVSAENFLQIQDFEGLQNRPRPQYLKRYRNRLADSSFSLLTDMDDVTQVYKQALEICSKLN
Assay text: biochemical
Design: species or system HEK293/K-562/placenta mixed human extract; Kinobeads chemoproteomic competition binding, quantified by TMT LC-MS/MS, dose response up to 20 uM
Property name: IC50

Inquiry: Bench note: what IC50 did COc1nc(N[C@H]2CC[C@H](NS(=O)(=O)CC(C)C)CC2)nc2[nH]nc(N3CCOC[C@H]3C)c12 [compound 39] show?
Reply text: ≥ 20 µM

###

System name: EPHA4 (Homo sapiens)
Sequence (P54764 whole entry): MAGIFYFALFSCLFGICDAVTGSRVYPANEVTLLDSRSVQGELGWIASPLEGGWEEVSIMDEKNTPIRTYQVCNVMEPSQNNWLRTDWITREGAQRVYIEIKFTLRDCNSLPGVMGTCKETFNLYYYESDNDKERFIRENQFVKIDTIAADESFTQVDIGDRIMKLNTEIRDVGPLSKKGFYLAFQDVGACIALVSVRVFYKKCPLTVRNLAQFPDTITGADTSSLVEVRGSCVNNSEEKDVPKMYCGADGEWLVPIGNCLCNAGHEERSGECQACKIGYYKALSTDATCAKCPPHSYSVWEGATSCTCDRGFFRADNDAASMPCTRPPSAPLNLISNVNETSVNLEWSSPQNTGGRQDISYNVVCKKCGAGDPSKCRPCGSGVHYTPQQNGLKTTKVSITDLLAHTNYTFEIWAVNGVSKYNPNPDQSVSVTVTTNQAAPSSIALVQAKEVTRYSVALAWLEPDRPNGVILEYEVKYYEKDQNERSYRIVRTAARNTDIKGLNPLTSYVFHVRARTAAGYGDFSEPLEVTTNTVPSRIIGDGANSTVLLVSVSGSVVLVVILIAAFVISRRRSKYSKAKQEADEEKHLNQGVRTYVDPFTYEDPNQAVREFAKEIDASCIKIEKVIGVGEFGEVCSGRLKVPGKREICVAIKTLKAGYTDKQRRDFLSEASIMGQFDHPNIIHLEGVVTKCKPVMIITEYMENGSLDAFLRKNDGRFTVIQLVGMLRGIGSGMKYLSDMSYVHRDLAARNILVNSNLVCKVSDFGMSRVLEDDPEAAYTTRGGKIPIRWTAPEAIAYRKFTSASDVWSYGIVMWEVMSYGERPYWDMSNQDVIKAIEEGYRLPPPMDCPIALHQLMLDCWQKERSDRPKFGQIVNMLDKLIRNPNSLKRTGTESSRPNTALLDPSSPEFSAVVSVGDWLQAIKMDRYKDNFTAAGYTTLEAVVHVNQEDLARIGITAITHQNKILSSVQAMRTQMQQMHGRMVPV
Assay text: biochemical
Set-up: species or system HEK293/K-562/placenta mixed human extract; Kinobeads chemoproteomic competition binding, quantified by TMT LC-MS/MS, dose response up to 20 uM
pIC50: −log10 of the molar value.
Property name: pIC50

Inquiry: Record request: pIC50 value, item COc1ccccc1-c1n[nH]c2nc(N[C@H]3CC[C@H](NS(=O)(=O)CCC(F)(F)F)CC3)nc(OC)c12
Reply text: ≤ 4.70

###

System name: TNIK (Homo sapiens)
Sequence (Q9UKE5 whole entry): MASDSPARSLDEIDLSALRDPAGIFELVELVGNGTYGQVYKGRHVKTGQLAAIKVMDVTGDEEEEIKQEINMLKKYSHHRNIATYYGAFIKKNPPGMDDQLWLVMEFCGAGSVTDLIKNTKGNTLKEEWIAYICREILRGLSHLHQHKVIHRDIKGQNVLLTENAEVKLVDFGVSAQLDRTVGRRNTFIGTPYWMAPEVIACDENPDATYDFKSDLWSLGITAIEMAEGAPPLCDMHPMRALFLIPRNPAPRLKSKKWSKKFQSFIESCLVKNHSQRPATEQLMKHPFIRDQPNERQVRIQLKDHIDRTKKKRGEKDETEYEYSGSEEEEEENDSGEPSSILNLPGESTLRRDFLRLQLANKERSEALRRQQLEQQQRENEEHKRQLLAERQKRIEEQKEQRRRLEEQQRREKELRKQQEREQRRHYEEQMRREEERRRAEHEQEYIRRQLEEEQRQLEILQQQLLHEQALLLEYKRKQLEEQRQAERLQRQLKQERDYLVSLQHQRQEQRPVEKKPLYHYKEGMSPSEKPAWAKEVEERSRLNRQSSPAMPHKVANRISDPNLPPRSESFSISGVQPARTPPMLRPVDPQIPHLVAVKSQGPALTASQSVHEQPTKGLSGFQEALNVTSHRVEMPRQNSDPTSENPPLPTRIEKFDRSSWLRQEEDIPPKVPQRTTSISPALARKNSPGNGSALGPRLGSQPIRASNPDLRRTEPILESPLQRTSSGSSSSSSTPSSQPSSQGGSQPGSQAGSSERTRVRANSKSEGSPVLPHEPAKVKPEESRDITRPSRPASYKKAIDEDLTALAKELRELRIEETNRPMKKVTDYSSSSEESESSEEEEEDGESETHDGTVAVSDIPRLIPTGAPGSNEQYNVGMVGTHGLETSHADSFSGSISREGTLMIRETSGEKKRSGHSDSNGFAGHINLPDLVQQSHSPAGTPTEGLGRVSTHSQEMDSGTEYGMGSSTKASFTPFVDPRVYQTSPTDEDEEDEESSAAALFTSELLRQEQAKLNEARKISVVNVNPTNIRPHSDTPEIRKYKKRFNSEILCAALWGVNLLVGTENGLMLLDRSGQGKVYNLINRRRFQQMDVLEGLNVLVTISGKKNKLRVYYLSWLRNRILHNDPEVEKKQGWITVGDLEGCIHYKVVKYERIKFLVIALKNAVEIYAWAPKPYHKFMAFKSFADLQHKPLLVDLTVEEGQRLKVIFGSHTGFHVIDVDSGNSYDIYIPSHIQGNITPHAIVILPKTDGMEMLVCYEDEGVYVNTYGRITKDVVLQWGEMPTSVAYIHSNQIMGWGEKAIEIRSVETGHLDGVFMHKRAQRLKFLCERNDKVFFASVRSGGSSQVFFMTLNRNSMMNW
Assay text: biochemical
Design: species or system HEK293/K-562/placenta mixed human extract; Kinobeads chemoproteomic competition binding, quantified by TMT LC-MS/MS, dose response up to 20 uM
pIC50: −log10 of the molar value.
Property name: pIC50

Inquiry: Given the entry COc1nc(N[C@H]2CC[C@H](NS(=O)(=O)CC(C)C)CC2)nc2[nH]nc(N3CCOC[C@H]3C)c12 [compound 39] , report its measured pIC50.
Reply text: ≤ 4.70

###

System name: HIPK2 (Homo sapiens, UniProt Q9H2X6)
Assay text: biochemical
Set-up: species or system HEK293/K-562/placenta mixed human extract; Kinobeads chemoproteomic competition binding, quantified by TMT LC-MS/MS, dose response up to 20 uM
Property name: IC50

Inquiry: Dear colleague, I am looking for the recorded IC50 of the following molecule: COc1ccccc1-c1n[nH]c2nc(N[C@H]3CC[C@H](NS(=O)(=O)CCC(F)(F)F)CC3)nc(OC)c12
Reply text: ≥ 20 µM

###

System name: GSK3B (Homo sapiens, UniProt P49841)
Sequence (P49841 whole entry): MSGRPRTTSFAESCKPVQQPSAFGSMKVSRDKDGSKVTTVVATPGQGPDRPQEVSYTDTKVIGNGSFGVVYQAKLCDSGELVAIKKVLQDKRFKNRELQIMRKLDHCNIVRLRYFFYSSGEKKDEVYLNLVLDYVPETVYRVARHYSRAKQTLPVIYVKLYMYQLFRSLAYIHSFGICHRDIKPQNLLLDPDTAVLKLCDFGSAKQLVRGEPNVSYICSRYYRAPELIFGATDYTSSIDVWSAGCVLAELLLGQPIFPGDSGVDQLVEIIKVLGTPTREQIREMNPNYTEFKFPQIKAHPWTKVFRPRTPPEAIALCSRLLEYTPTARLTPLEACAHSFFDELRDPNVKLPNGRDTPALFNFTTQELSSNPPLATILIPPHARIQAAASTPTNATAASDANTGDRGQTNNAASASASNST
Assay text: biochemical
Design: species or system HEK293/K-562/placenta mixed human extract; Kinobeads chemoproteomic competition binding, quantified by TMT LC-MS/MS, dose response up to 20 uM
Property name: IC50

Inquiry: Quick one: IC50 of COc1ccccc1-c1n[nH]c2nc(N[C@H]3CC[C@H](NS(=O)(=O)CCC(F)(F)F)CC3)nc(OC)c12 [compound 31] ?
Reply text: ≥ 20 µM

###

System name: PDPK1 (Homo sapiens, UniProt O15530)
Assay text: biochemical
Design: species or system HEK293/K-562/placenta mixed human extract; Kinobeads chemoproteomic competition binding, quantified by TMT LC-MS/MS, dose response up to 20 uM
Property name: IC50

Inquiry: Any idea what IC50 came out for COc1nc(N[C@H]2CC[C@H](NS(=O)(=O)CC(C)C)CC2)nc2[nH]nc(N3CCOC[C@H]3C)c12 on PDPK1 (Homo sapiens, UniProt O15530)?
Reply text: ≥ 20 µM

###

Protein target, amino acids: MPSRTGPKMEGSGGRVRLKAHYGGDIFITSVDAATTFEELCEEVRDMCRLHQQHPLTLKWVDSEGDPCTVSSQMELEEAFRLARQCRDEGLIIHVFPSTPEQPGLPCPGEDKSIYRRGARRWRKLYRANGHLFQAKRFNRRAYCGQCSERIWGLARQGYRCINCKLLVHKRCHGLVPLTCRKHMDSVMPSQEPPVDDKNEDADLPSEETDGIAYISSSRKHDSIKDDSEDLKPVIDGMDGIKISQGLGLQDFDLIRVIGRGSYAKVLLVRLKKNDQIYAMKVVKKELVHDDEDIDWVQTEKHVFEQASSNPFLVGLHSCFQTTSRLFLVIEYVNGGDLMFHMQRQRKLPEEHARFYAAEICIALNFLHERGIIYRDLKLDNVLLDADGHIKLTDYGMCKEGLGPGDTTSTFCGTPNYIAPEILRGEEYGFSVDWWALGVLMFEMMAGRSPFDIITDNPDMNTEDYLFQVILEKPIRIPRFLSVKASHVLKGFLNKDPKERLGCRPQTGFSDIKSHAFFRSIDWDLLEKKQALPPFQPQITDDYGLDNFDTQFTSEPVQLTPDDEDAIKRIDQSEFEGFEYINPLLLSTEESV
Property name: IC50

Inquiry: // query IC50 value for entry COc1ccccc1-c1n[nH]c2nc(N[C@H]3CC[C@H](NS(=O)(=O)CCC(F)(F)F)CC3)nc(OC)c12
Reply text: ≥ 20 µM

###

System name: UniProtKB Q9BVS4
Sequence (Q9BVS4 whole entry): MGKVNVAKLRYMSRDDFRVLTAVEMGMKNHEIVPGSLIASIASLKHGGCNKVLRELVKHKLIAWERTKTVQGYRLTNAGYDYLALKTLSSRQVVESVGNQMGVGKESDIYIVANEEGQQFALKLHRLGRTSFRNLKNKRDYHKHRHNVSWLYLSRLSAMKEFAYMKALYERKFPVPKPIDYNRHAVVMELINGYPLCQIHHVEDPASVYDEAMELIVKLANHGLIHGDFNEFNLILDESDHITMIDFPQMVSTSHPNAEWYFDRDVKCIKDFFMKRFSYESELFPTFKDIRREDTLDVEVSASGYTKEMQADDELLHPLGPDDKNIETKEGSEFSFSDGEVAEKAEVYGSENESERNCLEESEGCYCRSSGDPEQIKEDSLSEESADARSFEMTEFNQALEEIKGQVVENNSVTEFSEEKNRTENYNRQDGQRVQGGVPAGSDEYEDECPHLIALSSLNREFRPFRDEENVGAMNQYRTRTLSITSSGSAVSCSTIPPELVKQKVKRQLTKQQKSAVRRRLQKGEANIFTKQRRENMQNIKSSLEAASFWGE
Assay text: biochemical
Set-up: species or system HEK293/K-562/placenta mixed human extract; Kinobeads chemoproteomic competition binding, quantified by TMT LC-MS/MS, dose response up to 20 uM
pIC50: −log10 of the molar value.
Property name: pIC50

Inquiry: Endpoint output: pIC50 of COc1nc(N[C@H]2CC[C@H](NS(=O)(=O)CC(C)C)CC2)nc2[nH]nc(N3CCOC[C@H]3C)c12 . Value?
Reply text: ≤ 4.70

###

System name: UniProt P43405
Assay text: biochemical
Design: species or system HEK293/K-562/placenta mixed human extract; Kinobeads chemoproteomic competition binding, quantified by TMT LC-MS/MS, dose response up to 20 uM
Property name: IC50

Inquiry: Please tell me: IC50 of COc1ccccc1-c1n[nH]c2nc(N[C@H]3CC[C@H](NS(=O)(=O)CCC(F)(F)F)CC3)nc(OC)c12 [compound 31] , system UniProt P43405?
Reply text: ≥ 20 µM

###

System name: UniProt:Q06187
Sequence (Q06187 whole entry): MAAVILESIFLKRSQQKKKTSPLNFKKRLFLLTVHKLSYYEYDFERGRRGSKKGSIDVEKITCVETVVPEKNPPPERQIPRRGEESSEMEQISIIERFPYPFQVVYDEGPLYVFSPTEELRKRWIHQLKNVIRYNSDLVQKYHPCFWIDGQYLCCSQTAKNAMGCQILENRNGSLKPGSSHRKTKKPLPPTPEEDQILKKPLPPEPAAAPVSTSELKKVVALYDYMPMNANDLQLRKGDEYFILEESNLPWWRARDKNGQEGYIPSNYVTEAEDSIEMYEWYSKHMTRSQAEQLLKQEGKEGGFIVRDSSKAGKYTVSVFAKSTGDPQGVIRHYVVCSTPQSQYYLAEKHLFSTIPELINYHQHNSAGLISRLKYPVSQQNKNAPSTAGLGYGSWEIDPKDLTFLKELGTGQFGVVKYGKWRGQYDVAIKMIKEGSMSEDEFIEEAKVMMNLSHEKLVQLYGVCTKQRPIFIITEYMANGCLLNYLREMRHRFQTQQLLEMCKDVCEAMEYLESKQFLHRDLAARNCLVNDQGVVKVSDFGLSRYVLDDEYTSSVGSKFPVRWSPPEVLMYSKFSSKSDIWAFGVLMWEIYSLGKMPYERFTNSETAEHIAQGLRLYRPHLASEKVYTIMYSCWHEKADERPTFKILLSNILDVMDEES
Assay text: biochemical
Parameters: species or system HEK293/K-562/placenta mixed human extract; Kinobeads chemoproteomic competition binding, quantified by TMT LC-MS/MS, dose response up to 20 uM
pIC50: −log10 of the molar value.
Property name: pIC50

Inquiry: pIC50 of COc1ccccc1-c1n[nH]c2nc(N[C@H]3CC[C@H](NS(=O)(=O)CCC(F)(F)F)CC3)nc(OC)c12 on UniProt:Q06187?
Reply text: ≤ 4.70

###

System name: PIM2 (Homo sapiens)
Sequence (Q9P1W9 whole entry): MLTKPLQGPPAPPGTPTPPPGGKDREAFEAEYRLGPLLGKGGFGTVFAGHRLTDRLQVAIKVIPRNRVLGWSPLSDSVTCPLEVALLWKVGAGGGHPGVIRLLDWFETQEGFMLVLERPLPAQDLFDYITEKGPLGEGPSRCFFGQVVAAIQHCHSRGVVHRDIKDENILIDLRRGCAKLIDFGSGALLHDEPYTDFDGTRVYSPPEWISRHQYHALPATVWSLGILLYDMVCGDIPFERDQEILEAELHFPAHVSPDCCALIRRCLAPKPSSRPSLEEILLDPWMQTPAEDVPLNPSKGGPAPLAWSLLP
Assay text: biochemical
Design: species or system HEK293/K-562/placenta mixed human extract; Kinobeads chemoproteomic competition binding, quantified by TMT LC-MS/MS, dose response up to 20 uM
Property name: IC50

Inquiry: Which IC50 is reported with PIM2 (Homo sapiens) for this entry: COc1ccccc1-c1n[nH]c2nc(N[C@H]3CC[C@H](NS(=O)(=O)CCC(F)(F)F)CC3)nc(OC)c12 ?
Reply text: ≥ 20 µM

###

System name: TBK1 (Homo sapiens, UniProt Q9UHD2)
Assay text: biochemical
Design: species or system HEK293/K-562/placenta mixed human extract; Kinobeads chemoproteomic competition binding, quantified by TMT LC-MS/MS, dose response up to 20 uM
pIC50: −log10 of the molar value.
Property name: pIC50

Inquiry: Which pIC50 reading was recorded for the molecule COc1ccccc1-c1n[nH]c2nc(N[C@H]3CC[C@H](NS(=O)(=O)CCC(F)(F)F)CC3)nc(OC)c12 ?
Reply text: ≤ 4.70
